Sourced from patent US20210238260A1

- Target Entity: T1, plasma purified human antithrombin III (AT-III), in complex with unfractionated heparin (UFH) (human, UniProt P01008 33-464)
- T1 construct: also called AT-III/UFH
- Test Protocol: K0.5: AT-III concentration (with excess UFH) for 50% inhibition of FIXa activity on Mesyl-D-CHG-Gly-Arg-AMC, 10 s incubation
pIC50: −log10 of the molar value.
Label no (0) if pIC50 falls below 6; label yes (1) in every other case.

query: Does pIC50 meet or surpass 6 for FIXa-Y155F/K247N/N249S/N260S (enzyme) chain 1: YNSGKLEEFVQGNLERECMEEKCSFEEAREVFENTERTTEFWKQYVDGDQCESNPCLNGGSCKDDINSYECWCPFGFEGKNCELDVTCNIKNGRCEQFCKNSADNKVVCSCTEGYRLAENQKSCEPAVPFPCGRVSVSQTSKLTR chain 2: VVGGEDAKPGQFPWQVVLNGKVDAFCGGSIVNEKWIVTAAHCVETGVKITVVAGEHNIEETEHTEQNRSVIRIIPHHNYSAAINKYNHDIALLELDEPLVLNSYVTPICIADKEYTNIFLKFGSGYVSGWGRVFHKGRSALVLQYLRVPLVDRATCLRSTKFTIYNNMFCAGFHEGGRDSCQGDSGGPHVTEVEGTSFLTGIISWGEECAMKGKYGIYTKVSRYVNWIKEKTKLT ?
result: yes (1)

query: Please check the record FIXa-K247N/N249S/N260S (enzyme, also called K82N/N84S/N95S (chymotrypsin numbering)) chain 1: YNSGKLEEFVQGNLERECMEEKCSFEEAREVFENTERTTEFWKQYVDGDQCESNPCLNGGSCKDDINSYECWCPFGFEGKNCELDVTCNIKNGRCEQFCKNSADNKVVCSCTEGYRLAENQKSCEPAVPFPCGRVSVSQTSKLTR chain 2: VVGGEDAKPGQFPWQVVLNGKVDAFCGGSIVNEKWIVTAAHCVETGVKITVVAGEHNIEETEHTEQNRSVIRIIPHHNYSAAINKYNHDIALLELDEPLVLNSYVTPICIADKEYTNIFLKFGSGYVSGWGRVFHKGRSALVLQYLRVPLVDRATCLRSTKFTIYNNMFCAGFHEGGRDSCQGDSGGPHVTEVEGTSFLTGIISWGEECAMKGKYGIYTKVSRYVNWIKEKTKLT and state if its pIC50 is at or above 6.
result: yes (1)

query: Check if pIC50 >= 6 (inclusive). Item: FIXa-K247N/N249S/N260S/R318Y/R338E/R403E/E410N (enzyme, also called K82N/N84S/N95S/R150Y/R170E/R233E/E240N (chymotrypsin numbering)) chain 1: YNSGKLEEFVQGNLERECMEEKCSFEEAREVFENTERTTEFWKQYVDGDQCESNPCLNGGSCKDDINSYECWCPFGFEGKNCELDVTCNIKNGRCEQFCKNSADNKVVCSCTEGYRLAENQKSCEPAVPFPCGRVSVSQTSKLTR chain 2: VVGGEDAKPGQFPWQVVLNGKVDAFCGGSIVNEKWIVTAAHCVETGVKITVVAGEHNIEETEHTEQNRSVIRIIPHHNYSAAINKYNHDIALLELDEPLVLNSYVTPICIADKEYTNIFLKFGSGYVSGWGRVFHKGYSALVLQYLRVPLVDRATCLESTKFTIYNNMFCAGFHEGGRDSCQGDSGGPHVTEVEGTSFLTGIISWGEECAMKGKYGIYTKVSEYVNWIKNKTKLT
result: no (0)
